Numbers sourced from patent US20260317319A1.

The entries below come with measured half-life values attached.
assay: in vitro; format: in vitro ADME, human; settings: human, microsomes; HLM 0.50 mg/mL, NADPH 1 mM, 1 μM compound, pH 7.4, 37° C., 60 min; read-out: half-life (t1/2)
Only the number, expressed in min, is required.

Record CCN(C)C(=O)[C@@H]1C=C2c3cccc4[nH]cc(c34)C[C@H]2N(Cc2cccc(OC)c2)C1 [Compound 92] . Reported half-life: 9.9

Record CCN(CC)C(=O)[C@@H]1C=C2c3cccc4[nH]cc(c34)C[C@H]2N(Cc2ccc(F)cc2)C1 [Compound 49] . Reported half-life: 15.8

Record O=C([C@@H]1C=C2c3cccc4[nH]cc(c34)C[C@H]2N(Cc2ccccc2)C1)N1CCCC1 [Compound 84] . Reported half-life: 15.5

Record COc1cccc(CN2C[C@H](C(=O)N3[C@@H](C)C[C@@H]3C)C=C3c4cccc5[nH]cc(c45)C[C@H]32)c1 [Compound 94] . Reported half-life: 11.9

---

target: 5-HT2A receptor (Homo sapiens); assay: cell-based; assay type: cell-based; design: expressed in transfected cells; host or cells: HEK293, stably transfected; conditions: HEK293, agonist, Ca2+ flux, HEK293, max dose; read-out: 5-HT2A % Act @ Max Dose
Sequence (P28223 whole entry): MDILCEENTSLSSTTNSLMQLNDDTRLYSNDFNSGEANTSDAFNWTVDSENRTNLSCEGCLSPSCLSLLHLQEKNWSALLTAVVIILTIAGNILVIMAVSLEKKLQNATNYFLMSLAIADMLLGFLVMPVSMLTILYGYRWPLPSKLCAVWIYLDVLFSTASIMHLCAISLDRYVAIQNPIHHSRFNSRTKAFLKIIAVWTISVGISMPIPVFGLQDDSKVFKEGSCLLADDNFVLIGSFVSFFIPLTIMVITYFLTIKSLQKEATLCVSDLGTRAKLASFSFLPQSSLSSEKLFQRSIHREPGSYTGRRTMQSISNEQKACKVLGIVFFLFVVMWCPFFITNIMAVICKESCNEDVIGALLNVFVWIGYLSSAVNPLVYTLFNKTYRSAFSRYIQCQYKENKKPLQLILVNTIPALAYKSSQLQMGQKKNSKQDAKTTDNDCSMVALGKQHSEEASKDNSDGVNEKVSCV
The entries below come with measured Emax values attached.
Only the number, expressed in %, is required.

These recorded examples may help you get a feel for the data.
CC[C@@H](C)NC(=O)[C@H]1C=C2c3cccc4[nH]cc(c34)C[C@H]2N(CC)C1
89.6
O=C([C@@H]1C=C2c3cccc4[nH]cc(c34)C[C@H]2N(Cc2ccccc2)C1)N1CCCC1
68.9
CCN(CC)C(=O)[C@@H]1C=C2c3cccc4[nH]cc(c34)C[C@H]2N(Cc2ccc(OC)cc2)C1
70.5

Record `CCCN(CC)C(=O)[C@@H]1C=C2c3cccc4[nH]cc(c34)C[C@H]2N(Cc2ccccc2)C1` . Reported Emax: 67

---

molecular target: 5-HT2B receptor (Homo sapiens); construct: expressed in transfected cells; host or cells: HEK293, stably transfected; test: 5-HT2B receptor radioligand binding ([3H]LSD); conditions: [3H]LSD 2 nM; HEK293 stable cell line; 1 h, 25 °C; read-out: 5-HT2B Receptor Ki
Sequence (P41595 whole entry): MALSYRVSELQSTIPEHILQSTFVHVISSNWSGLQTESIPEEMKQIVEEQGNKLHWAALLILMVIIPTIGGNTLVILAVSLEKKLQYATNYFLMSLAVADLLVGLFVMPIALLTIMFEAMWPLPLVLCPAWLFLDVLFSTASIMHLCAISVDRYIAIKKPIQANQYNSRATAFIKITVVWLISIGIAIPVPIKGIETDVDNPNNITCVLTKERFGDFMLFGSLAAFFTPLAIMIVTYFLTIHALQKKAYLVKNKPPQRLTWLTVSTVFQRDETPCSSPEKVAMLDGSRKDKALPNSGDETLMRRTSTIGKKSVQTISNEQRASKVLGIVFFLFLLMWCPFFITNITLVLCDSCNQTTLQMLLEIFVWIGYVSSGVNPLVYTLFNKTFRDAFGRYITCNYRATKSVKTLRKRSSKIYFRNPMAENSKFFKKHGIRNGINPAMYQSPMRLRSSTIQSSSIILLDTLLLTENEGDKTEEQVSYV
Attribute Measured: pKi
In simple prose, pKi is minus the logarithm base ten of a concentration in moles per litre.

Record `CCN(CC)C(=O)[C@@H]1C=C2c3cccc4[nH]cc(c34)C[C@H]2NC1` . Reported pKi: 6.94

---

assay: in vitro; format: in vitro ADME, human; conditions: human, microsomes, role: substrate; metabolite 83 formed in HLM, T = 0; read-out: Metabolite Formation (percent formation of metabolite 83)
Attribute Measured: metabolised (%)
Only the number, expressed in %, is required.

[2H]C([2H])(c1cccc(OC)c1)N1C[C@H](C(=O)N(CC)CC)C=C2c3cccc4[nH]cc(c34)C[C@H]21 [Compound 68]
0.1

Kindly review the next molecule as well.
Record CCN(CC)C(=O)[C@@H]1C=C2c3cccc4[nH]cc(c34)C[C@H]2N(Cc2cccc(OC)c2)C1 [Compound 18] . Reported metabolised: 0.1

---

target: 5-HT2B receptor (Homo sapiens); construct: expressed in transfected cells; host or cells: HEK293, stably transfected; assay: cell-based; format: cell-based; conditions: HEK293, agonist, Ca2+ flux, HEK293, max dose; read-out: 5-HT2B % Act @ Max Dose
The entries below come with measured Emax values attached.

CCN(CC)C(=O)[C@@H]1C=C2c3cccc4[nH]cc(c34)C[C@H]2N(Cc2ccccc2O)C1
26.5%
CCN(CC)C(=O)[C@@H]1C=C2c3cccc4[nH]cc(c34)C[C@H]2N(Cc2cccc(C#N)c2)C1
0.93%
CCN(CC)C(=O)[C@@H]1C=C2c3cccc4[nH]cc(c34)C[C@H]2N(Cc2ccc3ccccc3c2)C1
18.4%

Record `C=CCN1C[C@H](C(=O)N2[C@@H](C)C[C@@H]2C)C=C2c3cccc4[nH]cc(c34)C[C@H]21` . Reported Emax: 96%
